Recorded values, source patent EP0465913B1.

# TEST_SYSTEM: Porcine pancreatic phospholipase A2 (Sus scrofa, UniProt P00592)
# Construct: purchased Boehringer Mannheim·Yamanouchi K.K. 161454·122416
# Sequence (P00592 23-146): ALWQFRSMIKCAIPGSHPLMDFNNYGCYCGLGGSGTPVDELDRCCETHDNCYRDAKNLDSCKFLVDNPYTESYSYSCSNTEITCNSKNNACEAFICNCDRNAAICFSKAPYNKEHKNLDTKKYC
# ASSAY_NAME: Phospholipase A2 inhibitory activity, method B (L-α-dipalmitoylphosphatidylcholine substrate)
# Format: biochemical
# CONDITION_SET: 1,000 ppm, 37°C for 30 minutes, read-out: % inhibition of PLA2 (1,000 ppm)
RECORDED_ENDPOINT: inhibition at 1000 ppm (%)

Guide cases for inhibition at 1000 ppm, answers given:
Cc1ccc(C(=O)Nc2cc(C(F)(F)F)cnc2NS(C)(=O)=O)s1: 64
CC(C)S(=O)(=O)Nc1ncc(C(F)(F)F)cc1NC(=O)c1cccc(F)c1: 61
CS(=O)(=O)Nc1ncc(C(F)(F)F)cc1NC(=O)c1cc2c(s1)CCC2: 83
CS(=O)(=O)Nc1ncc(C(F)(F)F)cc1NC(=O)c1ccc(F)cc1: 51
CS(=O)(=O)Nc1ncc(C(F)(F)F)cc1NC(=O)Cc1cccs1: 36
O=C(Nc1cc(C(F)(F)F)cnc1NS(=O)(=O)c1cccs1)C1CCCCC1: 84
CS(=O)(=O)Nc1ncc(C(F)(F)F)cc1NC(=O)c1ccsc1: 56

a: CC(C)S(=O)(=O)Nc1ncc(C(F)(F)F)cc1NC(=O)C1CCCCC1
b: Cc1cc(C)cc(C(=O)Nc2cc(C(F)(F)F)cnc2NS(C)(=O)=O)c1
c: CS(=O)(=O)Nc1ncc(C(F)(F)F)cc1NC(=O)c1ccncc1
With regard to inhibition at 1000 ppm, arrange the entries in ascending order, please. Form entry: ranked labels (order as requested). c, b, a
